Listed here are binders together with their documented % IGF-1 (in test).
Target: T1, human IGF-1 receptor (human, UniProt P08069 31-1367)
T1 construct: whole, on cells
Assay: SPA competition vs 125I-IGF-1, human IGF-1R membranes (Example 3)
Positions of bridges follow the written chain, without caps; N, C: chain ends. Chains are numbered I, II in the order given. No end group written: not given here.
Your answer should be a plain number; it is taken to be in %.

IGF-1 A (H8 A9 N21):B (H5D10Y16L17 A22) DPI A-COOH (ends and bridges not checked) chain 1: GIVDECCHASCDLRRLEMYCN-OH chain 2: GPEHLCGADLVDALYLVCGDAGFY-NH2 = 2.3

The binder IGF-1 A:In B(1-5)-IGF-1 B(YL) (6-30) (disulfide I:6-I:11, I:20-II:19, I:7-II:7; also: disulfides as in insulin, my derivation) A chain: GIVDECCFRSCDLRRLEMYCA-NH2 B chain: FVNQHLCGAELVDALYLVCGDRGFYFNKPT-NH2 showed % IGF-1 (in test) equal to 3.6

IGF-1 A:B (E10Y16L17) DPI (disulfide I:7-II:6 (inferred); not fully specified (bridges); cysteine pairing not given here, A chain, then B chain; DPI as in m25) A chain: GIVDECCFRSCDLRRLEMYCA-NH2 B chain: GPETLCGAELVDALYLVCGDRGFY-NH2 yielded % IGF-1 (in test) of 3.3
